Collected cytotoxicity at 10 µM values appear next to each entry.
Test: Toxicity liver stage against HepG2, at 10uM
Assay type: cell-based
Parameters: test concentration 10 uM, cell line HepG2-A16-CD81EGFP
Conditions: human, HepG2-A16-CD81EGFP cells; read-out: INHIBITION
Give just the numeric value; % need not be written.

# molecule, measure, units-of-measure, test-result
records = [
    ("CN(C)[C@H]1CCCCN(C(=O)CCc2csc(N)n2)C1", "cytotoxicity at 10 µM", "%", -7.59),
    ("CC1c2cc(F)ccc2CCN1CCS(=O)(=O)C(C)C (stereo unspecified)", "cytotoxicity at 10 µM", "%", 2.72),
    ("CN(C)CCOc1cccc(CN2CCCC3(C2)CN(C)C(=O)O3)c1 (stereo unspecified)", "cytotoxicity at 10 µM", "%", -5.82),
]

Can you look up the measured cytotoxicity at 10 µM of CC(C)n1ccc(C(=O)NCC(O)c2c(Cl)cccc2Cl)n1 (stereo unspecified) for me?
1.81

Moving on to the next molecule: O=C1CC(N(C(=O)c2ccc(-n3cccc3)cc2)C2CC2)C(=O)N1 (stereo unspecified)
-1.67

Moving on to the next molecule: CN(C)Cc1cc(CC2(NCc3ccc(C#N)cc3)COC2)no1
-5.96

====

Collected cytotoxicity at 10 µM values appear next to each entry.
Assay: Toxicity liver stage against HepG2, at 10uM
Type: cell-based
Design: test concentration 10 uM, cell line HepG2-A16-CD81EGFP
Conditions: human, HepG2-A16-CD81EGFP cells; read-out: INHIBITION
Give just the numeric value; % need not be written.

Below are worked cases with known answers.
# molecule, test-result
data = [
    ("Cc1oncc1C(=O)N1CC[C@@H]2[C@@H]1CC(=O)N2Cc1cccnc1", 5.44),
    ("CCc1nnc(CN2CCN(c3cccc(OC)c3)C(=O)C2)o1", 18.4),
    ("Cn1cnc(S(=O)(=O)N2CCSC3(CCCCC3)C2)c1", -5.95),
    ("O=C(CCc1nc(Cl)n[nH]1)N1CCC2(CCCN(CC3CCC3)C2=O)C1 (centres undefined)", -5.3),
    ("Cc1ccc(N2CCCC(N(C)Cc3cc(C)no3)C2)nn1 (centres undefined)", 11.9),
]

Can you look up the measured cytotoxicity at 10 µM of O=C(CN1C(=O)CCC1=O)NCc1nn(C2CCCC2)c2c1CCCC2 for me?
1.97

Moving on to the next molecule: O=C(NCCNc1ncccn1)C1CC(=O)N(Cc2ccco2)C1 (centres undefined)
-8.78

Moving on to the next molecule: CCc1noc(CN(C)C(=O)C(C)(C)Oc2cccc(Cl)c2)n1
-3.63

Moving on to the next molecule: COCCNc1cc(-c2cccc(C(=O)O)c2C)c2cc[nH]c2n1
-3.85

====

Test: Toxicity liver stage against HepG2, at 10uM
Type: cell-based
Design: test concentration 10 uM, cell line HepG2-A16-CD81EGFP
Details: human, HepG2-A16-CD81EGFP cells; read-out: INHIBITION
measure: cytotoxicity at 10 µM (%)
Give just the numeric value; % need not be written.

Below are worked cases with known answers.
# compound, measure, test-result
records = [
    ("Cc1cc(C[S+]([O-])CC(=O)NCc2cccs2)no1 (centres undefined)", "cytotoxicity at 10 µM", -12.3),
    ("c1cncc(OC[C@@H]2CC[C@H]3[C@H](CCN3Cc3cccs3)O2)c1", "cytotoxicity at 10 µM", 6.23),
    ("CC(C)CN1CCN(Cc2nc3c(s2)CCCC3)[C@H]2CS(=O)(=O)C[C@H]21", "cytotoxicity at 10 µM", 8.19),
    ("Cc1cc(-c2cc(N)c(=O)n(CC(=O)NC3CCCC3)n2)c(C)o1", "cytotoxicity at 10 µM", 4.39),
]

Read the next record carefully.
Can you look up the measured cytotoxicity at 10 µM of CNc1nc(C2CCCN(C(=O)C3CCCCC3)C2)nc2c1CNCC2 (centres undefined) for me?
-1.85
